All figures here come from ChEMBL document CHEMBL2203172.

System: WRL68
Assay: Cytotoxicity against human WRL68 cells
Type: cell-based
Each entry below lists one item and its recorded IC50 value.
# unit: µM | format: bare number

For orientation, consider the following solved cases.
CCCO[C@H]1C=C(COC(C)=O)C(=O)[C@H](O)[C@H]1O :: 191
CC(=O)OCC1=C[C@H](OCc2ccc(-c3ccccc3)cc2)[C@H](O)[C@@H](O)C1=O :: 71.3
CCCCCO[C@@H]1C=C(COC(C)=O)C(=O)[C@H](O)[C@H]1O :: 48.3
CCCCCCCO[C@H]1C=C(COC(C)=O)C(=O)[C@H](O)[C@H]1O :: 152

Next:
[Q] For `CCCCCO[C@H]1C=C(COC(C)=O)C(=O)[C@H](O)[C@H]1O` , what is its reported IC50?
[A] 169
